Attribution: the supplement of paper PMC3334620

Target: Pdr3 (UniProt P33200)
Sequence: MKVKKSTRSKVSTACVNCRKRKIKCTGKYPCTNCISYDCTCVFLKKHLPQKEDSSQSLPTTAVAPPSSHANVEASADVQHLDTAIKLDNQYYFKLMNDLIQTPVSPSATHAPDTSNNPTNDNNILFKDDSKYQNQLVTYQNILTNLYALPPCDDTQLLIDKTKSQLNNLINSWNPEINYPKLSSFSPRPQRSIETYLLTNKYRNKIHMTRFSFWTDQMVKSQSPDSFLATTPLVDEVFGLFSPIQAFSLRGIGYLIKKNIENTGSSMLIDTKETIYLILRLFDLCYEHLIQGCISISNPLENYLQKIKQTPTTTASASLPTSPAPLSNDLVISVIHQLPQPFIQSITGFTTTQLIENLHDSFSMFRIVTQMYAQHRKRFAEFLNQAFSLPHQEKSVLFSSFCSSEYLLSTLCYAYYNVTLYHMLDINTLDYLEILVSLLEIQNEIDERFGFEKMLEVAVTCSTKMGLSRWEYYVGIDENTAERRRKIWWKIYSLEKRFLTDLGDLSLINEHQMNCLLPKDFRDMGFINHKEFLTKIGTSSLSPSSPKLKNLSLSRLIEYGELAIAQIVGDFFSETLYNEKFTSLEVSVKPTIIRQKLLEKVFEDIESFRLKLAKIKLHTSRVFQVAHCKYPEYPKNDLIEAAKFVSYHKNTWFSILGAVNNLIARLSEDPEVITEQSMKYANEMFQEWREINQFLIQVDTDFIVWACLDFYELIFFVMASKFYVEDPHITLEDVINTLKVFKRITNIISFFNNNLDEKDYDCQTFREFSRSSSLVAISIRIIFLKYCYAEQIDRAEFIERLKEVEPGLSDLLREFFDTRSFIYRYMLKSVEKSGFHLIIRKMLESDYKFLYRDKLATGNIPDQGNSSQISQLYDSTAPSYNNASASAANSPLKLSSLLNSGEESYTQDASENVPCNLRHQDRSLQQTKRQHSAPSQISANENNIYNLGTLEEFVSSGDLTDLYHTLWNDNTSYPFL
Assay: PBM E-score (8-mer binding enrichment) (E-score (-0.5 to 0.5)); higher = stronger / more preferred TF binding
Conditions: protein concentration: 200 nM; construct: GST-full length
Over roughly 33,000 sequences, “E-score (-0.5 to 0.5)” has its median near -0.035; the highest 2% begin near 0.35. Many of the other results were omitted from the sample, so the highest values are more common in it than they were.
experimental.endpoint: PBM E-score
Could you respond with only the numeric value?

These recorded examples may help you get a feel for the data.
* CAAAAAAA | 0.211
* GCAGGGAA | 0.0453
* AAGATTGA | -0.131

Consider now this further sequence.
Fill in the blank: the reported PBM E-score of GGTCGGAA is ____. 0.4

====

Biological target: Pdr3 (UniProt P33200)
Sequence: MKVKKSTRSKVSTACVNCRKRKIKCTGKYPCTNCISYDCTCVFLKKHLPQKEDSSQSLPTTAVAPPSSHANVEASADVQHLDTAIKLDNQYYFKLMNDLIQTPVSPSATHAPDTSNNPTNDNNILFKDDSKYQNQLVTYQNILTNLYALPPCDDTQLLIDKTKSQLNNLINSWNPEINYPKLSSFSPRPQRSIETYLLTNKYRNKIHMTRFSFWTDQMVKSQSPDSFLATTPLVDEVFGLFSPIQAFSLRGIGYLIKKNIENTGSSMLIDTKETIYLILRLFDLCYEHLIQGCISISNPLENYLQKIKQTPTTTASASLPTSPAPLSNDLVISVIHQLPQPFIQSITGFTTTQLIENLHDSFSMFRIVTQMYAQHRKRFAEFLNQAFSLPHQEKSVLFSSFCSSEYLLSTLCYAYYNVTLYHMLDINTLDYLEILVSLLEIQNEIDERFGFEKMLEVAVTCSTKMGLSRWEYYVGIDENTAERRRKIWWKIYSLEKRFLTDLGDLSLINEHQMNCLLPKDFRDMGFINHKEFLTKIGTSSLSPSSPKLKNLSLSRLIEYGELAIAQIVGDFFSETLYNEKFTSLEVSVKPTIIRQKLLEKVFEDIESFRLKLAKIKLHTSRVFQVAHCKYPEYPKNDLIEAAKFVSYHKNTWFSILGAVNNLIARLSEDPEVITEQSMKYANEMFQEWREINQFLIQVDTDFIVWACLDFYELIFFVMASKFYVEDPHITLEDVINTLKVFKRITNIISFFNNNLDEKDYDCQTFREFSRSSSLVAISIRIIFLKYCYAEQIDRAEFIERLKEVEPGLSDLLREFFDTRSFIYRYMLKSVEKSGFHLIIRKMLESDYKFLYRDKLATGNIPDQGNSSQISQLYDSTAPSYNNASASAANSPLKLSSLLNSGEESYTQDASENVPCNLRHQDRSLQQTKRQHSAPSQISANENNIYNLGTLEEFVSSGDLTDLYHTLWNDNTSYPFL
Assay: PBM E-score (8-mer binding enrichment) (E-score (-0.5 to 0.5)); higher = stronger / more preferred TF binding
Details: protein concentration: 200 nM; construct: GST-full length
In all, about 33,000 sequences were measured (“E-score (-0.5 to 0.5)”: median about -0.035, highest 2% from about 0.35 on). For the sample, the highest values were picked, then their nearest neighbours and some sequences at random.
Outcome: 1.0 for PBM E-score of at least 0.1; 0.0 for anything lower.

The following sequences have reported results that may help.
* AACGGCTC | 0.0
* CTGAGTGA | 1.0
* ACCGGAGG | 1.0
* ACCGGATA | 1.0
* CGGAACAC | 1.0

Now look at this one.
API: above_or_equal(metric=PBM E-score, cutoff=0.1) for item AGCAAAAG 0.0

====

Target: Pdr3 (UniProt P33200)
Sequence: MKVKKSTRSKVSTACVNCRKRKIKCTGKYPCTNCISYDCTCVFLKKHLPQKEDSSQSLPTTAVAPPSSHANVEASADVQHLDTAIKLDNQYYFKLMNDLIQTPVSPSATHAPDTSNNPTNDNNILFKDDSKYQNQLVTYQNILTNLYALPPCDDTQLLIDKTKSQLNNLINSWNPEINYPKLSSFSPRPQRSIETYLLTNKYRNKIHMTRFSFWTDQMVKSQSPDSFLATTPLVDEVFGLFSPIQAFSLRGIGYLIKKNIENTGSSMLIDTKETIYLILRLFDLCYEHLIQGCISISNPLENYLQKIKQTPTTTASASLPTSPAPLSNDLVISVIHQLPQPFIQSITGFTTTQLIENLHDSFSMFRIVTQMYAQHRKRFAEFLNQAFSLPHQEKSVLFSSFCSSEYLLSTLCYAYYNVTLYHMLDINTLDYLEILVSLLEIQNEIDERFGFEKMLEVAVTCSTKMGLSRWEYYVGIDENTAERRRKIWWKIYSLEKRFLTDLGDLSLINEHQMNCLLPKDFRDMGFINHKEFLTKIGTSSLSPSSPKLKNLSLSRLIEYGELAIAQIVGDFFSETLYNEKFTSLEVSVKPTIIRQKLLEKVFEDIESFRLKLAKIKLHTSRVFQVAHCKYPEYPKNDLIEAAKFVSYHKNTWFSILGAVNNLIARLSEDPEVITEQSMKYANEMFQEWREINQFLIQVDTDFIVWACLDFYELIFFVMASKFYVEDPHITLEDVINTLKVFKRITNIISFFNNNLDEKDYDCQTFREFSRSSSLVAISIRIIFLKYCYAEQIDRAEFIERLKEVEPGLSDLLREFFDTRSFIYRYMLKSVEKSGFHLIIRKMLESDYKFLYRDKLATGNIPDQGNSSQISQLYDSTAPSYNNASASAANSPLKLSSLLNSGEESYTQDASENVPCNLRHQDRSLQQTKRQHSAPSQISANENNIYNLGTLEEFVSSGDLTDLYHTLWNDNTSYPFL
Test: PBM E-score (8-mer binding enrichment) (E-score (-0.5 to 0.5)); higher = stronger / more preferred TF binding
Settings: protein concentration: 200 nM; construct: GST-full length
In all, about 33,000 sequences were measured (“E-score (-0.5 to 0.5)”: median about -0.035, highest 2% from about 0.35 on). What follows is part of a selection rich in the highest values, with near analogues and random picks from the rest.
Outcome: t for PBM E-score of at least 0.3; f for anything lower.

The following sequences have reported results that may help.
- CCGGGACG: t
- GATCGGAA: t
- TCCCATCA: f
- AGACGGAG: f
- CCCACCCC: f

API: above_or_equal(metric=PBM E-score, cutoff=0.3) for item CCGTCCCG t

What about this sequence? ATGACCAA f

What about this sequence? CGACGGAA t

What about this sequence? GATAGTGC f

What about this sequence? CCCGGCCC f

What about this sequence? ACGGGACA t

What about this sequence? AGGAAAAG f

What about this sequence? AGAGGCCG f

====

Target: Pdr3 (UniProt P33200)
Sequence: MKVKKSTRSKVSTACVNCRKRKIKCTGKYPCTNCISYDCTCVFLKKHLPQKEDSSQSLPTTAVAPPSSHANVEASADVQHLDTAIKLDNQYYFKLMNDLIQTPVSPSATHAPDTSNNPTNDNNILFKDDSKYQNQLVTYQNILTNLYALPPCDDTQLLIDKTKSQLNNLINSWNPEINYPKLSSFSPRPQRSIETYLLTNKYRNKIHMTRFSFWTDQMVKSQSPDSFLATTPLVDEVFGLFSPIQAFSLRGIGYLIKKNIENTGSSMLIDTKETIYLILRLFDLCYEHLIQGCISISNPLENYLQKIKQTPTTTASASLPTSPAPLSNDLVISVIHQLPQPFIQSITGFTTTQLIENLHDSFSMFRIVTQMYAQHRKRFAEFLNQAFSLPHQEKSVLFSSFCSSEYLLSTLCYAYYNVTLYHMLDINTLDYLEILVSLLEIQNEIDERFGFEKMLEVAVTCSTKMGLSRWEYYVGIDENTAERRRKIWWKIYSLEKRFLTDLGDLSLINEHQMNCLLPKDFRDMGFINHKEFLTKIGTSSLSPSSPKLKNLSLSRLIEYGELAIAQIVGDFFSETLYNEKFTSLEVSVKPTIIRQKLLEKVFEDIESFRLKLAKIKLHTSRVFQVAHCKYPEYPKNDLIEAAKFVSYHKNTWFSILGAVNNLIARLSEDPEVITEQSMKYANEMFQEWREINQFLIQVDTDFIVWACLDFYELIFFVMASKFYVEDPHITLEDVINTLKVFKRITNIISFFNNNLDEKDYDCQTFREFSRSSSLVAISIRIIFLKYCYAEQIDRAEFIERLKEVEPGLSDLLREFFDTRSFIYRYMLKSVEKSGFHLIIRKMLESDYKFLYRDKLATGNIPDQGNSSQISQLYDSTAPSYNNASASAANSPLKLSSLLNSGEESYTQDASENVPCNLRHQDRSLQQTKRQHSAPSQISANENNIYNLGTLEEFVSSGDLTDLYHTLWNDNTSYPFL
Test: PBM E-score (8-mer binding enrichment) (E-score (-0.5 to 0.5)); higher = stronger / more preferred TF binding
Conditions: protein concentration: 200 nM; construct: GST-full length
Over roughly 33,000 sequences, “E-score (-0.5 to 0.5)” has its median near -0.035; the highest 2% begin near 0.35. For the sample, the highest values were picked, then their nearest neighbours and some sequences at random.
Collected PBM E-score values appear next to each entry.
Could you respond with only the numeric value?

Fill in the blank: the reported PBM E-score of GGCGGGAC is ____. 0.295

What about this sequence? AAGGAACG 0.00917

What about this sequence? CTACCGGC -0.0343

What about this sequence? CTTCCGGA 0.451
